- Tested on: SK-N-MC
- experimentNotes: Clonogenicity (soft agar) of established tumor cell lines, SK-N-MC
pIC50: −log10 of the molar value.
endpointLabel: pIC50

molecule="CCCC(=O)OCOP(=O)(OCC)OCC [BODP, butyroyloxymethyl diethyl phosphate]" numericvalue=4.43

###

- Test system: LA1-5S
- experimentNotes: Clonogenicity (soft agar) of established tumor cell lines, LA1-5S
endpointLabel: IC50

compound="CCCC(=O)OCOP(=O)(OCC)OCC [BODP, butyroyloxymethyl diethyl phosphate]" result="38 µM"

The reported numbers originate from patent US6030961A.
